target.of.assay: T1, EsCas13d, nuclease-dead (Eubacterium siraeum, UniProt B0MS50, R295A;H300A;R849A;H854A)
T1 sequence: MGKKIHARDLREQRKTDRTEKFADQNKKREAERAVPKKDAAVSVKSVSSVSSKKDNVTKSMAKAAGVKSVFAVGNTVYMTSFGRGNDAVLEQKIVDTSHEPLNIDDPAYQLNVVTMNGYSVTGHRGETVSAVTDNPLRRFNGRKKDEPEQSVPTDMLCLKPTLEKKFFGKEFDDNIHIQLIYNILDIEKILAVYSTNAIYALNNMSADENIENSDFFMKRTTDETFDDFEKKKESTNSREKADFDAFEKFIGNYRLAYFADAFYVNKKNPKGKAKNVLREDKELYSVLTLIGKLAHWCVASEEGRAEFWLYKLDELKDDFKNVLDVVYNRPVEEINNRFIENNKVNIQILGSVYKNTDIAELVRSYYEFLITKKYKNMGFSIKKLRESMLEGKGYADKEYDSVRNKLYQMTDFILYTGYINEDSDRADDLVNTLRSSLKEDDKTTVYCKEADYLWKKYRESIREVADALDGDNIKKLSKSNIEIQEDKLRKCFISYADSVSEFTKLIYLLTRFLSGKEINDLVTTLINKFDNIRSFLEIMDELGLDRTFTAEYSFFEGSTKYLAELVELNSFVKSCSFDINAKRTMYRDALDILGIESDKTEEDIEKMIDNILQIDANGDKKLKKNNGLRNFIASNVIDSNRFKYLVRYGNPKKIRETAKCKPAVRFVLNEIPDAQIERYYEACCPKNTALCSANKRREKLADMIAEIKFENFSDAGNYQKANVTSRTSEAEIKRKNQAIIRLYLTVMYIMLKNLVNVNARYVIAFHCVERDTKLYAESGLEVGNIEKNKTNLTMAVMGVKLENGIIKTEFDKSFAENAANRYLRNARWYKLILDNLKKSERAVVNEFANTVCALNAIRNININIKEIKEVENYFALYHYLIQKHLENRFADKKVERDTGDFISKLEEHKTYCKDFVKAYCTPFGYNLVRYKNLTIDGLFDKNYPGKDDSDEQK
test.details: crRNA (strand 1, pre-loaded); Mg2+; 40 mM Tris-HCl pH 7.5, 150 mM NaCl, 6 mM MgCl2, 1 mM DTT, 0.1% Tween-20, 0.2 mg/ml BSA; 25 C; 10 min per concentration, then washed
particulars: tags: His6-TwinStrep-SUMO cleaved; N-terminal SNAP kept (SNAP-Surface 488); label: 3' end held by stalled T7 RNA polymerase
Each entry below lists one item and its recorded Kd value.
measure.name: Kd (nM)

binder: target 2 MT 5'PFS AUC 3'PFS AAC (mixed) RNA 1: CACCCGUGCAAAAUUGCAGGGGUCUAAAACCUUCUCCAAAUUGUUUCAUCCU RNA 2: GGGAAUGGAUCCACAUCUACGAAUUCAUCAGGAUGAAACAAUUUGGAGAAGAACAGAUCGGAAGAGCACACGU
readout.units: nM
measurement: 25

binder: target 1 MT 5'PFS AAA 3'PFS AAA (mixed) RNA 1: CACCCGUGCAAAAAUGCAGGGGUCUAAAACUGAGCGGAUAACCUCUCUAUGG RNA 2: GGGAAUGGAUCCACAUCUACGAAUUCAAACCAUAGAGAGGUUAUCCGCUCAAAAAGAUCGGAAGAGCACACGU
readout.units: nM
measurement: 33.5

binder: target 1 insA 3' of 10,insU 3' of 1 (mixed) RNA 1: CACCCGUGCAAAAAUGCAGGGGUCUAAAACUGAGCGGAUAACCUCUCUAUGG RNA 2: GGGAAUGGAUCCACAUCUACGAAUUCGUACCAUAGAGAGGUUAAUCCGCUCAUCCGAGAUCGGAAGAGCACACGU
readout.units: nM
measurement: 13.9

binder: target 2 MT 5'PFS CUU 3'PFS CAG (mixed) RNA 1: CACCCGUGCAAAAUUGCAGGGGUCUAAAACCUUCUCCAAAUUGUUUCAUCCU RNA 2: GGGAAUGGAUCCACAUCUACGAAUUCCUUAGGAUGAAACAAUUUGGAGAAGCAGAGAUCGGAAGAGCACACGU
readout.units: nM
measurement: 3.75
